- System: M14 melanoma
- protocol text: NCI-60 one-dose screen, 48 h (100 = growth as untreated, 0 = no growth, -100 = all killed)
- recorded conditions: 10 µM unless noted
Compounds without any hit were thinned out: in the full panel of roughly 83,000, 20% have a hit.
Records here are stratified by growth; strata: low range (below 30%), mid range (30% to below 60%), high range (60% or more)

Record excerpt, results attached:
IN: Assign a bin to COC(=O)/C=C/c1cccc2c1C(=O)NC(C)(c1cc3ccccc3oc1=O)N2 (stereo not given)
OUT: mid range

IN: Assign a bin to C=CC[N+](C)(C)CCn1c2ccccc2c2nc3cc(C)c(C)cc3nc21
OUT: high range

IN: Assign a bin to COc1ccc2cc([C@H](C)C(=O)N/N=C/c3ccc(Br)cc3)ccc2c1
OUT: high range

IN: Assign a bin to COc1ccc(C2(SCCNCc3cc(N(C)C)ccn3)c3ccccc3C=Cc3ccccc32)cc1
OUT: low range

IN: Assign a bin to Clc1ccc(-c2ccc(OCCCN3CCN(c4ccncc4)CC3)cc2)cc1
OUT: low range

IN: Assign a bin to CCC(C)(C)c1ccc(OCCCCCCN2CCN(c3ccncc3)CC2)cc1
OUT: low range

IN: Assign a bin to O=C(/C=C/Nc1ccc(Cl)cc1)c1ccc2c(c1)Nc1ccccc1S2
OUT: mid range

IN: Assign a bin to N#Cc1c(-c2cccc(Cl)c2Cl)cc(-c2c[nH]c3ccccc23)[nH]c1=O
OUT: mid range

Okay, next one:
IN: Assign a bin to COc1ccc(-c2ccc(SCC(=O)Nc3ccc(S(N)(=O)=O)cc3Br)nn2)cc1
OUT: high range
